Biological target: UniProtKB Q9BE38
Sequence (Q9BE38 whole entry): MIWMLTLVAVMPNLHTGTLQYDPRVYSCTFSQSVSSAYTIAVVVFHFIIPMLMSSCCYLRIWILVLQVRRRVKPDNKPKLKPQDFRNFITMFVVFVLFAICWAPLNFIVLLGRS
Record form. Attribute: Ki. Fill in for each entry.
Answers are plain numbers, in nM.

Consider the following illustrative entries.
{"compound": "COc1cc2[nH]cc(CCNC(C)=O)c2cc1OC", "Ki [nM]": 460}
{"compound": "COc1cc2c(CCNC(C)=O)c[nH]c2cc1O [melatonin, 6-Hydroxy]", "Ki [nM]": 74}
{"compound": "CC(=O)NCCc1c[nH]c2ccccc12", "Ki [nM]": 1600}

Shifting focus to the compound that follows.
Specify the recorded Ki for CC(=O)NCCc1c[nH]c2ccc(O)cc12 [N-Acetyltryptamine,5-Hydroxy] , system: UniProtKB Q9BE38.
3000
